molecular target: SARS-CoV-2 Spike Protein (S1 Subunit, His Tag) (Sino 40591-V08H) (SARS-CoV-2, UniProt P0DTC2 16-685); experiment: Luminex bead assay, antibody supernatant, antigen on microspheres
propertyLabel: Binding signal (MFI)
Give the number; MFI is assumed, so skip it.

Prompt line: Please look up its Binding signal (MFI): mAb10935 (antibody, V domains shown) VH: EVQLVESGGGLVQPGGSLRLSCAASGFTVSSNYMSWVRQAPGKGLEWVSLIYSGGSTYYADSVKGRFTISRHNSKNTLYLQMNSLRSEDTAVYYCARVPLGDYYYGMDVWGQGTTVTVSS VL: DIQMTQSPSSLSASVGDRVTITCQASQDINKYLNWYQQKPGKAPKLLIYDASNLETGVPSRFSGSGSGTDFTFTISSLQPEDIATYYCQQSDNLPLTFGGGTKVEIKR
Response line: 25600
